Answer each item with its documented self-cleavage.
B1: Hairpin Ribozyme (parent)
chain: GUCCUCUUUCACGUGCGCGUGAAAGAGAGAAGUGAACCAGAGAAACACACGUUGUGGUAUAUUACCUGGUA

Variants of: B1
test-protocol: self-cleavage, relative activity (ratio to wild type); higher = more cleavage; co-transcriptional

Some solved entries appear below for comparison.
> print(dat)
   sequence.change   readout.kind  measured.value
1        A44G A45U  self-cleavage          0.0878
2        G21C C37A  self-cleavage           0.192
3        G25A A49C  self-cleavage           0.232

List reported self-cleavage for each of these variants:
1. A59U U63C
2. A36U G69C
3. G27U A71C

Given back:
1. 0.12
2. 0.127
3. 0.904

List reported self-cleavage for each of these variants:
1. C4U A22U
2. G1A A28U

Given back:
0.362
0.0496

List reported self-cleavage for each of these variants:
1. C18U A31G
2. G1U A31C
3. A31C A49G
4. G40C
5. U7C U53G
6. C4U U52C
7. A26U A59U

Given back:
1. 0.721
2. 0.0695
3. 0.0512
4. 0.128
5. 0.686
6. 0.481
7. 0.108

Where these numbers come from: the RNAGym collection of RNA variant scans (doi:10.7554/elife.80360)
